Recorded reverse-splicing fitness, one value per entry.
B1: Azoarcus group I ribozyme (parent)
chain: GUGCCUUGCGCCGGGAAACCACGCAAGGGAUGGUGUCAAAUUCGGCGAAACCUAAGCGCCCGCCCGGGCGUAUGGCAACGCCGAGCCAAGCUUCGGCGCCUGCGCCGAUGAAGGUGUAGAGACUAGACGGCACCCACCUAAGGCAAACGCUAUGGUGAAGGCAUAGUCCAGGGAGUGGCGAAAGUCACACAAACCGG

variants of: B1; experiment: reverse-splicing fitness (ratio to wild type); higher = more active; in vitro selection; Mg2+ level not given
Value Type: reverse-splicing fitness

{"Mutant Id": "A111G A120C A145G C150G C169A U176C", "Value Type": "reverse-splicing fitness", "Reported Value": 0.0102}
{"Mutant Id": "C82U A111U A120G A145U C150A C169A U176A", "Value Type": "reverse-splicing fitness", "Reported Value": 0.0137}
{"Mutant Id": "A111G A120U C150A C169G U176G", "Value Type": "reverse-splicing fitness", "Reported Value": 0.00211}
{"Mutant Id": "C82A A111U A120G A145C", "Value Type": "reverse-splicing fitness", "Reported Value": 0.0126}
{"Mutant Id": "C82A A120U A145G C150U C169G U176A", "Value Type": "reverse-splicing fitness", "Reported Value": 0.00591}
{"Mutant Id": "C82U A111G A120C A145G C169U U176C", "Value Type": "reverse-splicing fitness", "Reported Value": 0.0146}
{"Mutant Id": "A111C A120G A145U C150U", "Value Type": "reverse-splicing fitness", "Reported Value": 0.113}
{"Mutant Id": "C82U A111C A145G C150U C169A U176G", "Value Type": "reverse-splicing fitness", "Reported Value": 0.00752}
{"Mutant Id": "C82G A111C A145U C150G C169U U176A", "Value Type": "reverse-splicing fitness", "Reported Value": 0.00811}
{"Mutant Id": "C150G U176C", "Value Type": "reverse-splicing fitness", "Reported Value": 0.286}
{"Mutant Id": "C82U A111G A120G C150U", "Value Type": "reverse-splicing fitness", "Reported Value": 0.0125}
{"Mutant Id": "C82G A111C A145U C150G C169G U176G", "Value Type": "reverse-splicing fitness", "Reported Value": 0.00802}
{"Mutant Id": "C82U A120U A145G C150G C169U U176A", "Value Type": "reverse-splicing fitness", "Reported Value": 0.00708}
{"Mutant Id": "C82A A120C A145G C150A C169A", "Value Type": "reverse-splicing fitness", "Reported Value": 0.0111}
{"Mutant Id": "C82U A111G A145G C150G C169U", "Value Type": "reverse-splicing fitness", "Reported Value": 0.00891}
{"Mutant Id": "C82U A111U A120C C150G C169G U176G", "Value Type": "reverse-splicing fitness", "Reported Value": 0.00402}
{"Mutant Id": "C82U A111U A120G C169G", "Value Type": "reverse-splicing fitness", "Reported Value": 0.01}
{"Mutant Id": "C82A A111C A120U A145C C150G C169A U176A", "Value Type": "reverse-splicing fitness", "Reported Value": 0.00353}
{"Mutant Id": "C82G A111G U176A", "Value Type": "reverse-splicing fitness", "Reported Value": 0.277}
{"Mutant Id": "A120G C169G U176C", "Value Type": "reverse-splicing fitness", "Reported Value": 0.261}
{"Mutant Id": "A111C A120U A145U C150G U176G", "Value Type": "reverse-splicing fitness", "Reported Value": 0.00462}
{"Mutant Id": "C82G A111U A120G A145C C150G C169U U176A", "Value Type": "reverse-splicing fitness", "Reported Value": 0.0121}
{"Mutant Id": "C82G C150G C169U U176C", "Value Type": "reverse-splicing fitness", "Reported Value": 0.0132}
{"Mutant Id": "A120G A145U C169U U176G", "Value Type": "reverse-splicing fitness", "Reported Value": 0.0221}
{"Mutant Id": "A111U A145U C150U C169G U176G", "Value Type": "reverse-splicing fitness", "Reported Value": 0.00643}
{"Mutant Id": "C82A A120G A145G C150U U176C", "Value Type": "reverse-splicing fitness", "Reported Value": 0.0178}
{"Mutant Id": "C82G A111U A120C A145G C169G U176A", "Value Type": "reverse-splicing fitness", "Reported Value": 0.0187}
{"Mutant Id": "A111U A120G A145G C150U C169G", "Value Type": "reverse-splicing fitness", "Reported Value": 0.166}
{"Mutant Id": "C82A A111G A145G C150A C169U U176G", "Value Type": "reverse-splicing fitness", "Reported Value": 0.00672}
{"Mutant Id": "C82G A120U C150U U176G", "Value Type": "reverse-splicing fitness", "Reported Value": 0.0119}
{"Mutant Id": "A111U A120G C150A C169G U176C", "Value Type": "reverse-splicing fitness", "Reported Value": 0.0291}
{"Mutant Id": "C82U A120U A145C C150A C169U", "Value Type": "reverse-splicing fitness", "Reported Value": 0.00232}
{"Mutant Id": "C82U A111C A120G C150U", "Value Type": "reverse-splicing fitness", "Reported Value": 0.0115}
{"Mutant Id": "A120G A145G C150A C169G U176A", "Value Type": "reverse-splicing fitness", "Reported Value": 0.0656}
{"Mutant Id": "C82U A120U A145U C150U C169U U176A", "Value Type": "reverse-splicing fitness", "Reported Value": 0.0028}
{"Mutant Id": "A111C A120G A145G C169G U176C", "Value Type": "reverse-splicing fitness", "Reported Value": 0.0552}
{"Mutant Id": "C82U A111C A120G A145G C169G", "Value Type": "reverse-splicing fitness", "Reported Value": 0.00926}
{"Mutant Id": "C82A A145U C150U", "Value Type": "reverse-splicing fitness", "Reported Value": 0.449}
{"Mutant Id": "C82A A145U C150G C169G", "Value Type": "reverse-splicing fitness", "Reported Value": 0.00797}
{"Mutant Id": "C82G A111G A120C A145U C150U C169A U176G", "Value Type": "reverse-splicing fitness", "Reported Value": 0.00592}
{"Mutant Id": "C82G A111U A120C A145G C150U C169U U176G", "Value Type": "reverse-splicing fitness", "Reported Value": 0.00687}
{"Mutant Id": "A111G A120C A145C C150A C169G U176C", "Value Type": "reverse-splicing fitness", "Reported Value": 0.00982}
{"Mutant Id": "A111G A145U C150A C169U U176C", "Value Type": "reverse-splicing fitness", "Reported Value": 0.0165}
{"Mutant Id": "C82A A111C A120G C150U C169U", "Value Type": "reverse-splicing fitness", "Reported Value": 0.00806}
{"Mutant Id": "A120C A145G C150A C169G U176G", "Value Type": "reverse-splicing fitness", "Reported Value": 0.00453}
